- System: SW 1271 complex tumor spheroid viability
- assayOverview: Anticancer human tumor SW 1271 cell line growth inhibition
- measurementParameters: second compound 1 µM; first compound 0.0316 µM; active compounds read low
assayMetric: viability, T/C (%)
Please respond with the number in % and leave the unit unwritten.

IN: // Input: [2H]c1nc(C)nc([2H])c1-c1cc(NC[C@@H](C)c2cccc3c(C(=O)NC)ccnc23)ncn1 + Cn1nnc2c(C(N)=O)ncn2c1=O . Output its viability, T/C only.
OUT: 91.1

IN: // Input: CC1COCCN1c1cc(-c2ccnn2C)c2ccnc(-c3ccn[nH]3)c2n1 (stereo unspecified) + Cn1nnc2c(C(N)=O)ncn2c1=O . Output its viability, T/C only.
OUT: 71.4

IN: // Input: COc1ccc([C@@H](O)c2cc(-c3ncnc4cc(N5CCOCC5)ccc34)c(F)cc2Cl)nn1 + Cn1nnc2c(C(N)=O)ncn2c1=O . Output its viability, T/C only.
OUT: 95.7

IN: // Input: COc1cc(C)[nH]c(=O)c1CN1CCc2c(Cl)cc(C(OC)C3COC3)c(Cl)c2C1=O (stereo unspecified) + Cn1nnc2c(C(N)=O)ncn2c1=O . Output its viability, T/C only.
OUT: 92.5

IN: // Input: Cc1cc(C)c(CNC(=O)c2cc(-c3ccc(CN4CCOCC4)cc3)cc3c2cnn3C2CCCC2)c(=O)[nH]1 + Cn1nnc2c(C(N)=O)ncn2c1=O . Output its viability, T/C only.
OUT: 98.6

IN: // Input: CC(C)n1c(=O)n(C)c2cnc3cc(F)c(-c4ccc(OCCCN5CCCCC5)nc4)cc3c21 + Cn1nnc2c(C(N)=O)ncn2c1=O . Output its viability, T/C only.
OUT: 99.6

* * *

For each entry below, report its viability, T/C value.
- System: SW 1271 complex tumor spheroid viability
- assayOverview: Anticancer human tumor SW 1271 cell line growth inhibition;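 also: spheroids exposed to agents for seven days before readout; percent of DMSO vehicle control luminescence so 100% = vehicle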
- measurementParameters: second compound 0.0949 µM; first compound 1 µM; active compounds read low

IN: // Input: [2H]c1nc(C)nc([2H])c1-c1cc(NC[C@@H](C)c2cccc3c(C(=O)NC)ccnc23)ncn1 + CC[C@@]1(O)C(=O)OCc2c1cc1n(c2=O)Cc2cc3c(CN(C)C)c(O)ccc3nc2-1 . Output its viability, T/C only.
OUT: 31.4%

IN: // Input: Cc1cc(C)c(CNC(=O)c2cc(-c3ccc(CN4CCOCC4)cc3)cc3c2cnn3C2CCCC2)c(=O)[nH]1 + CC[C@@]1(O)C(=O)OCc2c1cc1n(c2=O)Cc2cc3c(CN(C)C)c(O)ccc3nc2-1 . Output its viability, T/C only.
OUT: 25.6%

IN: // Input: CC1COCCN1c1cc(-c2ccnn2C)c2ccnc(-c3ccn[nH]3)c2n1 (stereo unspecified) + CC[C@@]1(O)C(=O)OCc2c1cc1n(c2=O)Cc2cc3c(CN(C)C)c(O)ccc3nc2-1 . Output its viability, T/C only.
OUT: 2.58%

IN: // Input: COc1cc(C)[nH]c(=O)c1CN1CCc2c(Cl)cc(C(OC)C3COC3)c(Cl)c2C1=O (stereo unspecified) + CC[C@@]1(O)C(=O)OCc2c1cc1n(c2=O)Cc2cc3c(CN(C)C)c(O)ccc3nc2-1 . Output its viability, T/C only.
OUT: 32.5%

IN: // Input: COc1ccc([C@@H](O)c2cc(-c3ncnc4cc(N5CCOCC5)ccc34)c(F)cc2Cl)nn1 + CC[C@@]1(O)C(=O)OCc2c1cc1n(c2=O)Cc2cc3c(CN(C)C)c(O)ccc3nc2-1 . Output its viability, T/C only.
OUT: 25.9%

IN: // Input: CC(C)n1c(=O)n(C)c2cnc3cc(F)c(-c4ccc(OCCCN5CCCCC5)nc4)cc3c21 + CC[C@@]1(O)C(=O)OCc2c1cc1n(c2=O)Cc2cc3c(CN(C)C)c(O)ccc3nc2-1 . Output its viability, T/C only.
OUT: 19.8%

* * *

- Tested on: SW 1271 complex tumor spheroid viability
- assayOverview: Anticancer human tumor SW 1271 cell line growth inhibition; active = viability on the fitted dose curve at most 10% of control; inactive = the rest;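 also: spheroids exposed to agents for seven days before readout; percent of DMSO vehicle control luminescence so 100% = vehicle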
- measurementParameters: second compound 100 µM; first compound 3 µM
Outcome (select one): YES = active, NO = inactive

IN: Give the logged outcome of this assay for the following compound: Cc1sc2c(c1C)C(c1ccc(Cl)cc1)=NC(CC(=O)Nc1ccc(O)cc1)c1nnc(C)n1-2 (centres undefined) + Cn1nnc2c(C(N)=O)ncn2c1=O
OUT: YES

IN: Give the logged outcome of this assay for the following compound: O=C(c1cc(Cc2n[nH]c(=O)c3ccccc23)ccc1F)N1CCN(C(=O)C2CC2)CC1 + Cn1nnc2c(C(N)=O)ncn2c1=O
OUT: NO

IN: Give the logged outcome of this assay for the following compound: CNCc1ccc(-c2cc(-c3nc(-c4ccc(S(=O)(=O)C(C)C)cc4)cnc3N)on2)cc1 + Cn1nnc2c(C(N)=O)ncn2c1=O
OUT: NO

IN: Give the logged outcome of this assay for the following compound: Cn1ncnc1[C@H]1c2n[nH]c(=O)c3cc(F)cc(c23)N[C@@H]1c1ccc(F)cc1 + Cn1nnc2c(C(N)=O)ncn2c1=O
OUT: NO

* * *

For each entry below, report its viability, T/C value.
- Tested on: SW 1271 complex tumor spheroid viability
- assayOverview: Anticancer human tumor SW 1271 cell line growth inhibition;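 also: spheroids exposed to agents for seven days before readout; percent of DMSO vehicle control luminescence so 100% = vehicle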
- measurementParameters: second compound 94.9 pM; first compound 10 µM; active compounds read low
Please respond with the number in % and leave the unit unwritten.

IN: // Input: CC1COCCN1c1cc(-c2ccnn2C)c2ccnc(-c3ccn[nH]3)c2n1 (stereo unspecified) + COc1cc2c(cc1O)CCNC21CSC2c3c(OC(C)=O)c(C)c4c(c3C(COC1=O)N1C(O)C3Cc5cc(C)c(OC)c(O)c5C(C21)N3C)OCO4 . Output its viability, T/C only.
OUT: 2.12

IN: // Input: COc1cc(C)[nH]c(=O)c1CN1CCc2c(Cl)cc(C(OC)C3COC3)c(Cl)c2C1=O (stereo unspecified) + COc1cc2c(cc1O)CCNC21CSC2c3c(OC(C)=O)c(C)c4c(c3C(COC1=O)N1C(O)C3Cc5cc(C)c(OC)c(O)c5C(C21)N3C)OCO4 . Output its viability, T/C only.
OUT: 40.9

IN: // Input: [2H]c1nc(C)nc([2H])c1-c1cc(NC[C@@H](C)c2cccc3c(C(=O)NC)ccnc23)ncn1 + COc1cc2c(cc1O)CCNC21CSC2c3c(OC(C)=O)c(C)c4c(c3C(COC1=O)N1C(O)C3Cc5cc(C)c(OC)c(O)c5C(C21)N3C)OCO4 . Output its viability, T/C only.
OUT: 51.7

IN: // Input: COc1ccc([C@@H](O)c2cc(-c3ncnc4cc(N5CCOCC5)ccc34)c(F)cc2Cl)nn1 + COc1cc2c(cc1O)CCNC21CSC2c3c(OC(C)=O)c(C)c4c(c3C(COC1=O)N1C(O)C3Cc5cc(C)c(OC)c(O)c5C(C21)N3C)OCO4 . Output its viability, T/C only.
OUT: 4.84

IN: // Input: Cc1cc(C)c(CNC(=O)c2cc(-c3ccc(CN4CCOCC4)cc3)cc3c2cnn3C2CCCC2)c(=O)[nH]1 + COc1cc2c(cc1O)CCNC21CSC2c3c(OC(C)=O)c(C)c4c(c3C(COC1=O)N1C(O)C3Cc5cc(C)c(OC)c(O)c5C(C21)N3C)OCO4 . Output its viability, T/C only.
OUT: 34.4

IN: // Input: CC(C)n1c(=O)n(C)c2cnc3cc(F)c(-c4ccc(OCCCN5CCCCC5)nc4)cc3c21 + COc1cc2c(cc1O)CCNC21CSC2c3c(OC(C)=O)c(C)c4c(c3C(COC1=O)N1C(O)C3Cc5cc(C)c(OC)c(O)c5C(C21)N3C)OCO4 . Output its viability, T/C only.
OUT: 15.8

* * *

For each entry below, report its viability, T/C value.
- Tested on: SW 1271 complex tumor spheroid viability
- assayOverview: Anticancer human tumor SW 1271 cell line growth inhibition;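 also: spheroids exposed to agents for seven days before readout; percent of DMSO vehicle control luminescence so 100% = vehicle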
- measurementParameters: second compound 0.000949 µM; first compound 0.1 µM; active compounds read low
Please respond with the number in % and leave the unit unwritten.

IN: // Input: CC(C)n1c(=O)n(C)c2cnc3cc(F)c(-c4ccc(OCCCN5CCCCC5)nc4)cc3c21 + COc1cc2c(cc1O)CCNC21CSC2c3c(OC(C)=O)c(C)c4c(c3C(COC1=O)N1C(O)C3Cc5cc(C)c(OC)c(O)c5C(C21)N3C)OCO4 . Output its viability, T/C only.
OUT: 3.92

IN: // Input: [2H]c1nc(C)nc([2H])c1-c1cc(NC[C@@H](C)c2cccc3c(C(=O)NC)ccnc23)ncn1 + COc1cc2c(cc1O)CCNC21CSC2c3c(OC(C)=O)c(C)c4c(c3C(COC1=O)N1C(O)C3Cc5cc(C)c(OC)c(O)c5C(C21)N3C)OCO4 . Output its viability, T/C only.
OUT: 4.86

IN: // Input: COc1cc(C)[nH]c(=O)c1CN1CCc2c(Cl)cc(C(OC)C3COC3)c(Cl)c2C1=O (stereo unspecified) + COc1cc2c(cc1O)CCNC21CSC2c3c(OC(C)=O)c(C)c4c(c3C(COC1=O)N1C(O)C3Cc5cc(C)c(OC)c(O)c5C(C21)N3C)OCO4 . Output its viability, T/C only.
OUT: 5.35

IN: // Input: COc1ccc([C@@H](O)c2cc(-c3ncnc4cc(N5CCOCC5)ccc34)c(F)cc2Cl)nn1 + COc1cc2c(cc1O)CCNC21CSC2c3c(OC(C)=O)c(C)c4c(c3C(COC1=O)N1C(O)C3Cc5cc(C)c(OC)c(O)c5C(C21)N3C)OCO4 . Output its viability, T/C only.
OUT: 2.6

IN: // Input: CC1COCCN1c1cc(-c2ccnn2C)c2ccnc(-c3ccn[nH]3)c2n1 (stereo unspecified) + COc1cc2c(cc1O)CCNC21CSC2c3c(OC(C)=O)c(C)c4c(c3C(COC1=O)N1C(O)C3Cc5cc(C)c(OC)c(O)c5C(C21)N3C)OCO4 . Output its viability, T/C only.
OUT: 1.96

IN: // Input: Cc1cc(C)c(CNC(=O)c2cc(-c3ccc(CN4CCOCC4)cc3)cc3c2cnn3C2CCCC2)c(=O)[nH]1 + COc1cc2c(cc1O)CCNC21CSC2c3c(OC(C)=O)c(C)c4c(c3C(COC1=O)N1C(O)C3Cc5cc(C)c(OC)c(O)c5C(C21)N3C)OCO4 . Output its viability, T/C only.
OUT: 14.8
